- SUBJECT OF TEST: T1, soluble FGFR4 receptor protein (human, UniProt P22455 144-369)
- T1 sequence: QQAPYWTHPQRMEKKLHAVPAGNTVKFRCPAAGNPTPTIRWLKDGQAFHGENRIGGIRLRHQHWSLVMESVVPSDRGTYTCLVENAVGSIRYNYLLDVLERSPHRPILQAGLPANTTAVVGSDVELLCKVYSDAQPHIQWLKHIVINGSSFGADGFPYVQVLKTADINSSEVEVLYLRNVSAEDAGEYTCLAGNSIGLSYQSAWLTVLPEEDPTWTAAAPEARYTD
- ASSAY EXPLANATION: BLI Octet RED96, antibody on anti-hIgG Fc tip

BINDER: Ab19 (antibody, human IgG2, kappa, V domains shown, format in the assays not spelled out) VH: EVQLLESGGGVVQPGRSLRLSCAASGFTFSSYAMHWVRQAPGKGLEWVAVISYDGSNKYYADSVKGRFTISRDNSKNTLSLQMNSLRVEDTAIYYCVRGAGRGFTLGPDGFDIWGQGTMVTVSS VL: DIVMTQTPLSLSVTPGQPASISCKSSRSLLHSDGKTYVYWYVQKSGQPPQLLIYELSNRFSGVPDRFSGSGSRTDFTLKISRVEAEDVGVYYCMQYIEAPLTFGGGTKVEIKR
kon / M⁻¹ s⁻¹: 125000

BINDER: Ab90 (antibody, human IgG2, kappa, V domains shown, format in the assays not spelled out) VH: EVQLLESGGGVVQPGRSLRLSCAASGFTFSSYAMHWVRQAPGKGLEWVAVISYDGSNKYYADSVKGRFTISRDNSKNTLSLQMNSLRVEDTAIYYCVRGAGRGYPYGPDGFDIWGQGTMVTVSS VL: DIVMTQTPLSLSVTPGQPASISCTSSRSLLHSDGKTYVYWYVQKSGQPPQLLIYELSNRFSGVPDRFSGSGSRTDFTLKISRVEAEDVGVYYCMQYVEVPLTFGGGTKVEIKR
kon / M⁻¹ s⁻¹: 112000

BINDER: Vh1 combined with the VL of Ab15 (antibody, V domains shown, captured on anti-human IgG Fc tips) VH: EVQLVESGGGVVQPGRSLRLSCAASGFTFSSYAMHWVRQAPGKGLEWVAVISYDGSNKYYADSVKGRFTISRDNSKNTLYLQMNSLRAEDTAIYYCVRGAGRGYTYGPDGFDIWGQGTMVTVSS VL: DIVMTQTPLSLSVTPGQPASISCTSSRSLLHSDGKTYVYWYVQKSGQPPQLLIYELSNRFSGVPDRFSGSGSRTDFTLKISRVEAEDVGVYYCMQYIEAPLTFGGGTKVEIK
kon / M⁻¹ s⁻¹: 170000
